# IC50 measurements, system: AXL (Homo sapiens, UniProt P30530)

INSERT INTO assay_data (molecule, result) VALUES
  ('COC[C@H](C)Nc1ncc2c(-c3ccc(C4(N5CCOCC5)CC4)cc3)cc([C@H]3CC[C@H](O)CC3)n2n1', '100 to 1000 nM'),
  ('COC[C@H](C)Nc1ncc2c(-c3cnn([C@@H]4CCC(C(=O)OC(C)(C)C)C4)c3)cc([C@H]3CC[C@H](O)CC3)n2n1 (stereo partly drawn)', '≤ 100 nM');

For each of the molecules below, note its IC50.
1. CCC1(Nc2ncc3c(-c4ccc(CN5CCN(C)CC5)cc4)cc([C@H]4CC[C@H](O)CC4)n3n2)CCC1
2. COC[C@H](C)Nc1ncc2c(-c3cnn(C4CCS(=O)(=O)CC4)c3)cc([C@H]3CC[C@H](O)CC3)n2n1
3. CC(C)(O)C1CN(c2cc(-c3cc([C@H]4CC[C@H](O)CC4)n4nc(NCCOC(F)F)ncc34)ccn2)CCO1 (stereo partly drawn)
4. COC[C@H](C)Nc1ncc2c(-c3ccnc(C(C)(C)O)c3)cc([C@H]3CC[C@H](O)CC3)n2n1
5. CCOCC(C)Nc1ncc2c(-c3ccc(CN4CCN(C)CC4)cc3)cc(C3CCC(O)CC3)n2n1 (stereo not drawn)
6. CNOc1cc(-c2cc([C@H]3CC[C@H](O)CC3)n3nc(N[C@@H](C)COC)ncc23)ccn1

["100 to 1000 nM", "≤ 100 nM", "≤ 100 nM", "≤ 100 nM", "100 to 1000 nM", "≤ 100 nM"]

Please state, for each entry, its recorded IC50.
1. COC[C@H](C)Nc1ncc2c(-c3cnn(C(C)(C)C(=O)N4CCCC(C)(O)C4)c3)cc([C@H]3CC[C@H](O)CC3)n2n1 (stereo partly drawn)
2. COC[C@H](C)Nc1ncc2c(-c3cnn(CC(=O)N[C@H]4CCOC4)c3)cc([C@H]3CC[C@H](O)CC3)n2n1
3. C[C@@H](COC(F)F)Nc1ncc2c(-c3cnn(CCC#N)c3)cc([C@H]3CC[C@H](O)CC3)n2n1

≤ 100 nM
100 to 1000 nM
≤ 100 nM

* * *

Biological target: FLT3 (Homo sapiens, UniProt P36888)
Sequence (P36888 27-993): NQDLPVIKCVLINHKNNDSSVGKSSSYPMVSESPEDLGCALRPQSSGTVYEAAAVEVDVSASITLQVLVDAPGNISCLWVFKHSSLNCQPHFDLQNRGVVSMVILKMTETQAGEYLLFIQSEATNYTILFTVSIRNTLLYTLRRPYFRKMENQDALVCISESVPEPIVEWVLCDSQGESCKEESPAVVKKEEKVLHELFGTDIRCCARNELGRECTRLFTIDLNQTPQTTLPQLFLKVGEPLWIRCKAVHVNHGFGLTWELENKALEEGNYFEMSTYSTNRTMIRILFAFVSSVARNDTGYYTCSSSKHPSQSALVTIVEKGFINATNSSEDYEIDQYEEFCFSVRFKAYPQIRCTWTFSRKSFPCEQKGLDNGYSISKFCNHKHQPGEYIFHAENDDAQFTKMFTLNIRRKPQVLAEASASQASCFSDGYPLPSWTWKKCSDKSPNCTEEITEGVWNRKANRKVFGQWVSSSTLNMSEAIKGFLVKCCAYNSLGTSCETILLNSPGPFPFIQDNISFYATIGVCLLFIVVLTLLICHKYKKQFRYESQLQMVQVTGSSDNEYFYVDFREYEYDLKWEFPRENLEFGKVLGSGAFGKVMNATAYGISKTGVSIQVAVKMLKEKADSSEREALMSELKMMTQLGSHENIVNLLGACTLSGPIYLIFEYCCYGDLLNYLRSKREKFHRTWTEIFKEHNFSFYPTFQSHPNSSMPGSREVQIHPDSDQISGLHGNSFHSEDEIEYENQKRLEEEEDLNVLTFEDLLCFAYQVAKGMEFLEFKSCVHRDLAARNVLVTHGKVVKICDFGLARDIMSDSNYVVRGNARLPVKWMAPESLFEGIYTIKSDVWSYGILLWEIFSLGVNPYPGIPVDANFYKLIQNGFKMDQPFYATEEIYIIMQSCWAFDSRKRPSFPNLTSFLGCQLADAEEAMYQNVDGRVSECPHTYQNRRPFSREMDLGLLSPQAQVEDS
Please go through the items and note down their IC50.

Known IC50 results, listed for orientation:
INSERT INTO assay_data (compound, result) VALUES
  ('COC[C@H](C)Nc1ncc2c(-c3cnn(C(C)(C)C(=O)N4CC[C@H](O)C4)c3)cc([C@H]3CC[C@H](O)CC3)n2n1', '1000 to 10000 nM'),
  ('COC[C@H](C)Nc1ncc2c(-c3cnn(C[C@@H]4CC(=O)N(C)C4)c3)cc([C@H]3CC[C@H](O)CC3)n2n1 [Compound 476]', '100 to 1000 nM'),
  ('OC1CCC(c2cc(-c3ccnc(N4CCOCC4)c3)c3cnc(NCCC4CC4)nn23)CC1 (stereo not shown)', '≤ 100 nM'),
  ('CC(Cc1ccc(F)cc1)Nc1ncc2c(-c3cnn(C4COC4)c3)cc(C3CCC(O)CC3)n2n1 (racemic)', '≤ 100 nM'),
  ('COC[C@H](C)Nc1ncc2c(-c3cnn([C@H]4CCC(C(=O)OC(C)(C)C)C4)c3)cc([C@H]3CC[C@H](O)CC3)n2n1 (stereo partly shown)', '100 to 1000 nM');

Required: IC50, one value per compound below.
1. COC[C@H](C)Nc1ncc2c(-c3ccc(C4(C(=O)O)CC4)cc3)cc([C@H]3CC[C@H](O)CC3)n2n1
2. COCC(C)Nc1ncc2c(-c3cccc(N4CCOCC4)c3)cc(C3CCC(O)CC3)n2n1 (stereo not shown)

100 to 1000 nM
≤ 100 nM

* * *

Molecular target: AXL (Homo sapiens, UniProt P30530)
Sequence (P30530 26-894): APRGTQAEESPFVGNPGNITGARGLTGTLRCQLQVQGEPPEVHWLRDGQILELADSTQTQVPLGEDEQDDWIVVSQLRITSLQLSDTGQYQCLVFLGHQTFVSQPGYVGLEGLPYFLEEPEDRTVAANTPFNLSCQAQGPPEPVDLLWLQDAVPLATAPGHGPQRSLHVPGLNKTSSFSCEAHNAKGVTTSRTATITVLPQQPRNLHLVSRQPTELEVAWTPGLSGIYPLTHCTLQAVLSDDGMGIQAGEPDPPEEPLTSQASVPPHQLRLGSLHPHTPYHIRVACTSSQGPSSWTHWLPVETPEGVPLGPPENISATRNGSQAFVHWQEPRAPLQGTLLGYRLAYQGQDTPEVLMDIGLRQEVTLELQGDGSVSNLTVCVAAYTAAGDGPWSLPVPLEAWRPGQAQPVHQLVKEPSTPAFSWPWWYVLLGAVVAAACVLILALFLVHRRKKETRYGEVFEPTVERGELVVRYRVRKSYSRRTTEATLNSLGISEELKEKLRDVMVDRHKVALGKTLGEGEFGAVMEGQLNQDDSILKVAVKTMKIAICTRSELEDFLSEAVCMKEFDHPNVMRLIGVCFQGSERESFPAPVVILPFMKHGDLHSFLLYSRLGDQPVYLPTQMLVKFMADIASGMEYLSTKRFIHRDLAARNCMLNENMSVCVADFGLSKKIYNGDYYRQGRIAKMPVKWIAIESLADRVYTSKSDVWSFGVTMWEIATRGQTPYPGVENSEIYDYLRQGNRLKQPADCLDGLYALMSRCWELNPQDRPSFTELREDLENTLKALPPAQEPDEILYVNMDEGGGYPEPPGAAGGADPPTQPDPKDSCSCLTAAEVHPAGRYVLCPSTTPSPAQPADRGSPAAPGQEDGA
pIC50: −log10 of the molar value.
Value type: pIC50

Some solved entries appear below for comparison.
INSERT INTO assay_data (substance_smiles, value_type, result) VALUES
  ('COC[C@H](C)Nc1ncc2c(-c3cnn(C(C)(C)C(=O)N4CCCC5(COC5)C4)c3)cc([C@H]3CC[C@H](O)CC3)n2n1', 'pIC50', '≥ 7.00'),
  ('C[C@@H](CC(F)(F)F)Nc1ncc2c(-c3cncc([S@@](C)(=N)=O)c3)cc([C@H]3CC[C@H](O)CC3)n2n1', 'pIC50', '≥ 7.00'),
  ('COC[C@H](C)Nc1ncc2c(C3=CCNCC3)cc([C@H]3CC[C@H](O)CC3)n2n1', 'pIC50', '≥ 7.00'),
  ('COC[C@H](C)Nc1ncc2c(N3CC4(COC4)CC3=O)cc([C@H]3CC[C@H](O)CC3)n2n1', 'pIC50', '5.00 to 6.00'),
  ('COC[C@H](C)Nc1ncc2c(-c3cnn([C@@H]4CCOC4)c3)cc([C@H]3CC[C@H](O)CC3)n2n1', 'pIC50', '≥ 7.00'),
  ('COC[C@H](C)Nc1ncc2c(C#N)cc([C@H]3CC[C@H](O)CC3)n2n1', 'pIC50', '5.00 to 6.00');

Please find the next compound below.
Which pIC50 value is on record for `COC[C@H](C)Nc1ncc2c(-c3cnn(C(C)(C)c4nnc(C(F)(F)F)o4)c3)cc([C@H]3CC[C@H](O)CC3)n2n1` ?
≥ 7.00
